biological target: HLA-DR molecule DRB1*0405 (human); assay: competition vs 125I probe, purified HLA
Entries and their IC50
readout-kind: IC50 (µM)

GLRSLTTLPRALGAQ [EPO 101 analog GLRSLTTLPRALGAQ]    0.524
GLRSLTTLSRALGAQ [EPO 101 analog GLRSLTTLSRALGAQ]    0.719
